test system: U2OS; assay: Multiplex assay against U2OS; assay type: toxicity, cell-based; conditions: human, 48 h, 10 µM, compound concentration 10 uM, replicate 1
For each of the compounds below, state its Population Apoptotic (%).
Show the value, then the unit it is measured in.

In the examples that follow, each entry is paired with its recorded Population Apoptotic (%).
compound	Population Apoptotic (%)
N[C@](CC1c2ccccc2Oc2ccccc21)(C(=O)O)[C@H]1C[C@@H]1C(=O)O	90%
Cc1cc(NC(=O)NCCN2CCC(O)(Cc3ccccc3)CC2)c2ccccc2n1 [PALOSURAN]	97%
CN1CCN2c3ccccc3Cc3ccccc3C2C1.Cl (centres undefined) [MIANSERIN HYDROCHLORIDE]	91%

Okay, next one:
Req: Given O=c1ccc2ccc(OCCCCN3CCN(c4cccc5sccc45)CC3)cc2[nH]1 [BREXPIPRAZOLE] , state its recorded Population Apoptotic (%).
Resp: 96%

* * *

system: Fibroblast; experiment: Multiplex assay against human fibroblast; type: toxicity, cell-based; conditions: 12 h, 1 µM, compound concentration 1 uM, replicate 2
For each of the compounds below, state its Population Apoptotic (%).

In the examples that follow, each entry is paired with its recorded Population Apoptotic (%).
compound	readout-name	assay-result
COC(c1ccccc1)(c1ccccc1)[C@H](Oc1nc(C)cc(C)n1)C(=O)O [AMBRISENTAN]	Population Apoptotic (%)	30%
O=c1ccc2ccc(OCCCCN3CCN(c4cccc5sccc45)CC3)cc2[nH]1 [BREXPIPRAZOLE]	Population Apoptotic (%)	48%
Cn1cc(C(=O)OCC2CCN(CCNS(C)(=O)=O)CC2)c2ccccc21	Population Apoptotic (%)	33%
Cc1sc2c(c1C)C(c1ccc(Cl)cc1)=N[C@H](CC(=O)OC(C)(C)C)c1nnc(C)n1-2	Population Apoptotic (%)	33%
C[C@H](NC(=O)CNC(=O)c1cccc(Cl)c1)c1ccccc1	Population Apoptotic (%)	44%
COc1ccc2c(c1OCc1ccccc1)C[C@@H](C(=O)O)N(C(=O)C(c1ccccc1)c1ccccc1)C2 [OLODANRIGAN]	Population Apoptotic (%)	38%

Required: Population Apoptotic (%), one value per compound below.
1. CCn1c(-c2nc3cc(C(=O)N4CCCC(N)C4)ccc3n2C)cc2ccccc21.Cl (stereo unspecified)
2. N[C@](CC1c2ccccc2Oc2ccccc21)(C(=O)O)[C@H]1C[C@@H]1C(=O)O

Resp:
1: 32%; 2: 58%

Required: Population Apoptotic (%), one value per compound below.
1. Cc1cc(NC(=O)NCCN2CCC(O)(Cc3ccccc3)CC2)c2ccccc2n1 [PALOSURAN]
2. Cc1cc(=O)n(C)c2cc(N3C(=O)CC[C@H](NS(=O)(=O)CC(C)C)[C@H]3c3ccc(Cl)cc3)ccc12

Resp:
["40%", "38%"]

* * *

test system: U2OS; test: Multiplex assay against U2OS; type: toxicity, cell-based; settings: human, 12 h, 1 µM, compound concentration 1 uM, replicate 2
Non-standard residues stand in square brackets, D forms with d. Residues, ends and D or L forms follow the SMILES beside them.
For each of the molecules below, state its Population Fragmented Nuclei (%).
One number for each entry, in %.

In the examples that follow, each entry is paired with its recorded Population Fragmented Nuclei (%).
molecule	Population Fragmented Nuclei (%)
C[C@@H]1CC(=O)Nc2cccc(-c3ccc4c(c3)c(-c3cnn(C)c3)nn4C)c2N1	16
C[C@H](NC(=O)CNC(=O)c1cccc(Cl)c1)c1ccccc1	20
Cc1ccc(OCC(O)C(C)NC(C)C)c2c1CCC2.Cl (stereo not drawn)	11
CCn1c(-c2nc3cc(C(=O)N4CCCC(N)C4)ccc3n2C)cc2ccccc21.Cl (stereo not drawn)	18
OCCCNc1cc(-c2ccnc(Nc3cccc(Cl)c3)n2)ccn1	27

Required: Population Fragmented Nuclei (%), one value per molecule below.
1. S=C(NCCCc1c[nH]cn1)NCCCN(Cc1ccc(Cl)c(Cl)c1)c1ccc(Br)cn1
2. CSc1nc(NC2CCCC2)c([N+](=O)[O-])c(NC2CCCC2)n1
3. O=C(NCCNCC(O)COc1ccc(O)cc1)N1CCOCC1.O=C(NCCNCC(O)COc1ccc(O)cc1)N1CCOCC1.O=C(O)/C=C/C(=O)O (stereo not drawn) [XAMOTEROL FUMARATE]
4. O=c1nc2[nH]c3ccccc3nc-2c(=O)[nH]1

Resp:
[20, 18, 19, 15]

Required: Population Fragmented Nuclei (%), one value per molecule below.
1. COc1cc2nc(N3CCN(C(=O)c4ccco4)CC3)nc(N)c2cc1OC.Cl [PRAZOSIN HYDROCHLORIDE]
2. COc1cc(OC2CCN(C(C)=O)CC2)ccc1C(=O)N1CCC(N2C(=O)OCc3ccccc32)CC1
3. COc1cc(C(=O)N2CC[C@@H](O)[C@@H](N)C2)cc2nc(-c3cc4ccccc4n3CC3CC3)n(C)c12.Cl
4. Cc1cc(-c2ccc3c(c2)CC[C@H]3N2CC3(CCN(C(=O)Cc4cn5cc(C)sc5n4)CC3)C2)ncn1

Resp:
1: 18; 2: 20; 3: 15; 4: 21

Required: Population Fragmented Nuclei (%), one value per molecule below.
1. CN1CCN2c3ccccc3Cc3ccccc3C2C1.Cl (stereo not drawn) [MIANSERIN HYDROCHLORIDE]
2. CC(C)C[C@@H]1NC(=O)[C@@H](C(C)C)NC(=O)[C@@H]2CCCN2C(=O)[C@@H](CC(=O)O)NC(=O)[C@@H](Cc2c[nH]c3ccccc23)NC1=O [BQ-123] (cyclo(L[dW][dD]P[dV]))
3. CN1C[C@H](C(=O)N[C@]2(C)O[C@@]3(O)[C@@H]4CCCN4C(=O)[C@H](Cc4ccccc4)N3C2=O)C[C@@H]2c3cccc4[nH]cc(c34)C[C@H]21.CS(=O)(=O)O [DIHYDROERGOTAMINE MESYLATE]
4. O=c1ccc2ccc(OCCCCN3CCN(c4cccc5sccc45)CC3)cc2[nH]1
5. Nc1nc(CC(=O)Nc2ccc(CCNC[C@H](O)c3ccccc3)cc2)cs1
6. O=C(Nc1cc(-c2ccccc2)nn1-c1ccccc1F)c1ccc([N+](=O)[O-])cc1
7. N[C@](CC1c2ccccc2Oc2ccccc21)(C(=O)O)[C@H]1C[C@@H]1C(=O)O
8. CN(C)C/C=C/C(=O)Nc1ccc(C(=O)N2CCCC(Nc3ncc(Cl)c(-c4c[nH]c5ccccc45)n3)C2)cc1 (stereo not drawn)

Resp:
1: 16; 2: 19; 3: 23; 4: 16; 5: 13; 6: 14; 7: 10; 8: 18

Required: Population Fragmented Nuclei (%), one value per molecule below.
1. CN(C)C(=O)Cn1cc(-c2ccc(-c3nnc4ccccn34)cc2)cn1
2. CCCCCCNC(=O)Nc1ccc(S(=O)(=O)Nc2ccc(CCNC[C@H](O)COc3ccc(O)cc3)cc2)cc1

Resp:
[22, 18]
